The compounds listed here are annotated with their melting point.

Below: 3 compounds and their reported melting point.
[[record]]
compound = "O=C1CCCC1c1ccc(Cl)cc1 (stereo not drawn)"
data_value = "154 to 155 °C"

[[record]]
compound = "O=C1C(=CO)C(c2ccc(Cl)cc2Cl)c2c(Cl)cc(Cl)cc21 (stereo not drawn)"
data_value = "189 to 191 °C"

[[record]]
compound = "CC(C)(OCc1nn(Cc2ccccc2)c2ccc(Cl)cc12)C(=O)O"
data_value = "145 to 147 °C"


query: Look up melting point for this compound: `CC(C)c1cc(OCCCC(=O)OCc2ccccc2)cc2c1C(=O)N(COc1cc(C(F)(F)F)nn1-c1ccccc1)S2(=O)=O`
result: 99 to 101 °C

query: Look up melting point for this compound: `CCOC(=O)Cn1c(C(=O)OCC)cc(=O)c2cc(O)c(=O)ccc21`
result: 186 to 188 °C

* * *

The molecules listed here are annotated with their melting point.

Below: 2 molecules and their reported melting point.
[[record]]
molecule = "CC(c1ccc(O)cc1)(c1ccc(O)cc1)c1ccc(C(C)(c2ccc(O)cc2)c2ccc(O)cc2)cc1"
data_value = "307 °C"

[[record]]
molecule = "CCOCC1COc2c(cc3ncc(C(=O)O)c(O)c3c2Cl)O1 (centres undefined)"
data_value = "266 to 267 °C"


query: Look up melting point for this molecule: `COCCNC(=O)c1cccc(NC(=O)Oc2ccccc2)c1`
result: 142 to 150 °C

query: Look up melting point for this molecule: `CCOC(=O)C(=CNc1ccc(OC)c(=O)cc1)C(=O)OCC`
result: 108 to 110 °C

* * *

The compounds listed here are annotated with their melting point.

[[record]]
compound = "O=C1Nc2ccc(Cl)cc2C1(O)c1cccc(F)c1F (stereo unspecified)"
result_type = "melting point"
data_value = "248 °C"

[[record]]
compound = "C[Si](C)(C)OC(Cn1ccnc1)(Cn1cncn1)c1ccc(F)cc1F (stereo unspecified)"
result_type = "melting point"
data_value = "87 to 89 °C"

[[record]]
compound = "COC(=O)C1(N(C)C(=O)Cc2c(C)cc(C)cc2C)CCN(OC)CC1"
result_type = "melting point"
data_value = "133 to 135 °C"

[[record]]
compound = "CCOC(=O)c1c(C)nn2ccc3c(c12)C(CC#N)CC3 (stereo unspecified)"
result_type = "melting point"
data_value = "136 to 140 °C"

[[record]]
compound = "CC1(C=NO)OCCc2c1[nH]c1ccccc21 (stereo unspecified)"
result_type = "melting point"
data_value = "176 to 178 °C"


query: Look up melting point for this compound: `COc1ccc2sc(C(N)=O)c(S(=O)(=O)C(C)C)c2c1`
result: 169 to 170 °C

query: Look up melting point for this compound: CCCCCCCc1ccc(CC2C=CC(Oc3ccc(C(=O)O)o3)=C3N=C4CCCCC4=C32)cc1 (stereo unspecified)
result: 164 to 165 °C

query: Look up melting point for this compound: `CCCc1nn(-c2ccc(C(F)(F)F)cn2)cc1CCCC=O`
result: 71 to 72 °C

query: Look up melting point for this compound: Cc1c(NC(=O)C(CSC(=O)c2ccco2)Cc2ccccc2)cccc1C(=O)O (stereo unspecified)
result: 113 to 116 °C

query: Look up melting point for this compound: `CC(=O)Oc1ccc(C=C2SC(=O)NC2=O)cc1`
result: 238 to 240 °C

query: Look up melting point for this compound: `NNCCCS(=O)(=O)O`
result: 147 to 148 °C

* * *

The compounds listed here are annotated with their melting point.

Below: 3 compounds and their reported melting point.
[[record]]
compound = "CCc1nc2c(cnn2CC)c(NC2CCOCC2)c1CNC(=O)c1cccc(C(=O)NCc2ccc(Cl)c(-c3cccc(CN4CCN(C)CC4)c3)c2)c1"
data_value = "112 to 114 °C"

[[record]]
compound = "CCn1cc(C(=O)O)c(=O)c2cnc(N3CCN(Cc4ccc([N+](=O)[O-])cc4)CC3)nc21"
data_value = "259 to 261 °C"

[[record]]
compound = "CCCCCCC1=CC(O)(C(Br)Br)N(Cc2ccccc2)C1=O (stereo not given)"
data_value = "105 to 108 °C"


query: Look up melting point for this compound: `CCCOc1ccc(F)cc1OCCN1C(=O)c2ccccc2C1=O`
result: 102 to 103 °C

query: Look up melting point for this compound: `CN1Cc2cccc3[nH]cc(c23)C1`
result: 185 to 186 °C

* * *

The molecules listed here are annotated with their melting point.

[[record]]
molecule = "COC(=O)CCCNC1(c2ccccc2Cl)C(=O)Nc2ccc(Cl)cc21 (centres undefined)"
data_value = "142 °C"

[[record]]
molecule = "Cc1cccc(C2=NN=C(c3ccccc3Cc3ccccc3)NN2)c1"
data_value = "162 to 163 °C"


query: Look up melting point for this molecule: COc1ccc(S(N)(=O)=O)cc1C(=O)NC1CCN(C2CCCCC2)C1 (centres undefined)
result: 184 to 187 °C

query: Look up melting point for this molecule: `CCCC(CCC)Nc1nc(C)nc(Oc2c(Br)cc(C(C)(C)O)cc2OC)c1N`
result: 114 to 116 °C

* * *

The compounds listed here are annotated with their melting point.

Below: 3 compounds and their reported melting point.
[[record]]
compound = "O=C1CCCC(S(=O)(=O)c2ccccc2)C1 (centres undefined)"
data_value = "83 to 85 °C"

[[record]]
compound = "Cn1c2ccccc2c2cc(C(=O)C(C)(C)N3CCOCC3)ccc21"
data_value = "164 to 166 °C"

[[record]]
compound = "CC12CCC3(CC1CCC1C2CCC2(C)C1CC(O)C2N=[N+]=[N-])OCCO3 (centres undefined)"
data_value = "112 to 116 °C"


query: Look up melting point for this compound: `COC(=O)Nc1nc2cc(C(=NO)c3ccc(F)cc3)ccc2[nH]1`
result: > 315 °C

query: Look up melting point for this compound: COC(=O)c1cccc2c1OC1CC(N=[N+]=[N-])C(O)C21 (centres undefined)
result: 150 to 152 °C

query: Look up melting point for this compound: `O=C1c2ccc(SCCO)cc2C(=O)c2cc3ccccc3cc21`
result: 195 to 196 °C

* * *

RESULT TYPE: melting point

query: Look up melting point for this compound: `O=[N+]([O-])c1cc2c(cc1Sc1ccccn1)CCC2`
result: 74 °C

query: Look up melting point for this compound: `CCOC(=O)c1nc2c(Cl)cccc2n(-c2ccc(OC)cc2)c1=O`
result: 128 to 129 °C

query: Look up melting point for this compound: `CCN1c2ncc(COc3cccc(C(N)=O)c3)cc2C(=O)N(C)c2ccc(Cl)nc21`
result: 96 to 98 °C

query: Look up melting point for this compound: CC(=O)NN(C(C)=O)[C@@H]1c2cc(C#N)ccc2OC(C)(C)[C@H]1O (relative stereo)
result: 206 to 207 °C

query: Look up melting point for this compound: Cc1ccc(S(=O)(=O)OCC2CN(C)c3ccc(Cl)cc3O2)cc1 (configuration not stated)
result: 65 to 67 °C

query: Look up melting point for this compound: `OC1(c2cc(F)cc(OCc3ccccc3)c2)CCOCC1`
result: 112 °C

query: Look up melting point for this compound: O=C(O)C1CCc2ccccc2N1C(=O)CS (configuration not stated)
result: 85 to 96 °C

* * *

The compounds listed here are annotated with their melting point.

Below: 8 compounds and their reported melting point.
[[record]]
compound = "CCN1C(=O)CCc2cc(S(=O)(=O)c3cccc([C@@]4(O)CCO[C@@H](C)C4)c3)ccc21"
data_value = "122 to 124 °C"

[[record]]
compound = "Cc1csc2ncc(C(O)CCc3ccccc3)n12 (centres undefined)"
data_value = "144 to 145 °C"

[[record]]
compound = "COC(=O)c1c(N)ncn1C1c2ccccc2CC1(C)C (centres undefined)"
data_value = "100 to 105 °C"

[[record]]
compound = "C[C@H](C#Cc1sccc1COCc1ccc(F)cc1)N(O)C(N)=O"
data_value = "94 to 95 °C"

[[record]]
compound = "COC(=O)c1ccc(CC(=O)c2ccc3c(c2)C(C)(C)CCC3(C)C)cc1"
data_value = "103 to 104 °C"

[[record]]
compound = "C=CC(=O)Oc1ccc(C(=O)c2ccccc2)cc1"
data_value = "44 to 46 °C"

[[record]]
compound = "O=C(CCCCCl)c1ccccc1"
data_value = "49 to 50 °C"

[[record]]
compound = "COc1ccc(C(Cl)C(C)(C)[N+](=O)[O-])cc1OC (centres undefined)"
data_value = "109 to 110 °C"


Next:
query: Look up melting point for this compound: `COc1cc2c(cc1OC)CN(Cc1ccc(OC(=O)N(C)C)c(OC)c1)CC2`
result: 126 to 128 °C

* * *

The compounds listed here are annotated with their melting point.

[[record]]
compound = "CCOC(=O)c1c(C(=O)C(=O)OC)c2cc(Cl)ccc2n1C"
data_value = "119 to 120 °C"


query: Look up melting point for this compound: CCC1(C2CCCC2)Cc2cc(OC)c(Cl)c(Cl)c2C1=O (stereo not drawn)
result: 163 °C

query: Look up melting point for this compound: `Nc1nc(OCC(F)(F)F)cc(C(F)(F)F)n1`
result: 108 to 110 °C

query: Look up melting point for this compound: `Cc1cccc(C)c1-n1c(C)nnc1S`
result: 189 to 192 °C

query: Look up melting point for this compound: CC1CN(c2ccc(C(N)=O)cc2)CC(C)N1CCC1OCCc2ccccc21 (stereo not drawn)
result: 206 to 207 °C

query: Look up melting point for this compound: `COc1c([N+](=O)[O-])ccc(N)c1Cl`
result: 118 to 123 °C

query: Look up melting point for this compound: Cc1cccc(C)c1N1CC(C)N(c2c(C)cccc2C)C1=NC(=O)Oc1ccccc1 (stereo not drawn)
result: 165 to 166 °C

query: Look up melting point for this compound: CCCCN1CCN2c3ccc(C)cc3C(c3ccco3)=[N+]([O-])CC2C1 (stereo not drawn)
result: 104 to 106 °C

query: Look up melting point for this compound: `CN(C)C=Nc1c(Cl)cc(N=Cc2ccc3c(c2)OCO3)cc1Cl`
result: 155 to 156 °C

query: Look up melting point for this compound: OC1(Cc2ccccc2F)CCN(Cc2ccccc2)C1 (stereo not drawn)
result: 75 to 77 °C
